# Tested on: 945468-187-T-J2-PDC spheroids viability;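 further: spheroids exposed to compounds for seven days before reading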
# measurement.notes: Anticancer human tumor 945468-187-T-J2-PDC patient-derived rectal carcinoma cell line growth inhibition [PI3K]
# recorded.conditions: compound 1 µM; active compounds read low; spheroids with HUVEC and MSC
# From the text: Combinatorial screen of targeted agents with the PI3K inhibitors inavolisib, alpelisib, duvelisib, and copanlisib in multi-cell type tumor spheroids A high-throughput screen of multi-cell type tumor spheroids was designed to identify active combinations of targeted small molecules and PI3K pathway inhibitors. […] Compounds. […] If the clinical Cmax for an agent had not been determined, the highest concentration tested was 10 microM. […]
This section presents compounds with their documented viability, T/C values.
assay.endpoint: viability, T/C

[[record]]
compound = "CCCS(=O)(=O)Nc1ccc(F)c(C(=O)c2c[nH]c3ncc(-c4ccc(Cl)cc4)cc23)c1F"
result_value = "99.4% [middle of 4 runs]"

[[record]]
compound = "COc1c(OCCCN2CCOCC2)ccc2c3n(c(=NC(=O)c4cnc(N)nc4)nc12)CCN3"
result_value = "22.5% [middle of 8 runs]"

[[record]]
compound = "Cn1ncc(Cl)c1-c1cc(C(=O)NC(CN)Cc2cccc(F)c2)sc1Cl (stereo not drawn)"
result_value = "84.6% [middle of 4 runs]"

[[record]]
compound = "CC1(C)CCC(CN2CCN(c3ccc(C(=O)NS(=O)(=O)c4ccc(NCC5CCOCC5)c([N+](=O)[O-])c4)c(Oc4cnc5[nH]ccc5c4)c3)CC2)=C(c2ccc(Cl)cc2)C1"
result_value = "103% [middle of 4 runs]"

[[record]]
compound = "CC(C)NCC(C(=O)N1CCN(c2ncnc3c2C(C)CC3O)CC1)c1ccc(Cl)cc1 (stereo not drawn)"
result_value = "103% [middle of 4 runs]"

[[record]]
compound = "CCN1CCN(Cc2ccc(Nc3ncc(F)c(-c4cc(F)c5nc(C)n(C(C)C)c5c4)n3)nc2)CC1"
result_value = "78% [middle of 4 runs]"

[[record]]
compound = "CNC(=O)c1ccc(N2C(=S)N(c3ccc(C#N)c(C(F)(F)F)c3)C(=O)C2(C)C)cc1F"
result_value = "85.3% [middle of 4 runs]"

[[record]]
compound = "CC(Nc1ccc2c(c1)OCCn1cc(N3C(=O)OCC3C(F)F)nc1-2)C(N)=O (stereo not drawn)"
result_value = "76.9% [middle of 8 runs]"

